# Target system: human Bcl-xL recombinant His-tagged protein (Homo sapiens, UniProt Q07817)
# Construct: without the C-terminus hydrophobic tail; His
# Sequence (Q07817 1-209 limits assumed): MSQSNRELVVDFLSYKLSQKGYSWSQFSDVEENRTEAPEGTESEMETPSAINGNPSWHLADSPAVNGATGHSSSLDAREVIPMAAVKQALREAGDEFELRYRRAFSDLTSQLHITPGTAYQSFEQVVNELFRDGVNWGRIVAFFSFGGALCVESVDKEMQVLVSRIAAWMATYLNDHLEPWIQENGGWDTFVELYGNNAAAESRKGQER
# Assay text: Bcl-xL fluorescence polarization-based competitive binding assay (Flu-Bak peptide)
# Assay setup: FP assay, 60 nM Bcl-xL, 5 nM Flu-Bak peptide; Ki calculated from IC50; read-out: Binding Affinity Ki (μM) Bc1-xL
Kindly state Ki for each of the entries shown.

Report its Ki with human Bcl-xL recombinant His-tagged protein (Homo sapiens, UniProt Q07817) as the test system: COc1c(OC)c(OC)c2c(=O)c(-c3ccc4cc(O)ccc4c3)c(C)oc2c1CC(C)C [Compound 15d]
> 14 µM

Report its Ki with human Bcl-xL recombinant His-tagged protein (Homo sapiens, UniProt Q07817) as the test system: CCOc1ccc2cc(-c3c(C)oc4c(CC(C)C)c(OC)c(OC)c(OC)c4c3=O)ccc2c1 [Compound 15e]
> 14 µM

Report its Ki with human Bcl-xL recombinant His-tagged protein (Homo sapiens, UniProt Q07817) as the test system: Cc1cc(=O)c2c(O)c(O)c(O)c(CC(C)C)c2o1 [Compound 15j]
> 14 µM
